Hey, just so you know, these numbers are from the OPERA property sets (Mansouri et al. 2018).

PROPERTY_NAME: logP
Kindly provide the number alone.

Some molecules with recorded logP:
CC1=NCCN1    0.52
CS(=O)(=O)c1cccc([N+](=O)[O-])c1    0.5
CCOC(=O)C(C)NC(=O)CCCCSc1ncnc2nc[nH]c12 (stereo unspecified)    1.51
NC1CC1    0.07
O=C(O)c1cccs1    1.57
COC(=O)C(C)N(C(=O)Cc1ccccc1)c1c(C)cccc1C (stereo unspecified)    3.4
CCCCC1OC(=O)c2ccccc21 (stereo unspecified)    2.8
CCCCF    2.58
CC(C)C[N+](=O)[O-]    1.4
S=C=Nc1cccc2ccccc12    4.34

Answer with reported logP of CCN(C(=O)SCc1ccccc1)C(C)C(C)C (stereo unspecified) 4.6

Recall and state the measured logP for COCCOc1ccccc1 . 1.73

* * *

PROPERTY_NAME: logP
Form rule: numeric answer, no unit written next to it.

Use these answered entries as a reference point.
O=C(O)CCC(Nc1ccc(Br)cc1)C(=O)O (centres undefined)    1.12
CC1(C)N=C(N)N=C(N)N1c1ccc(Br)cc1    1.09
CCC1(C2=CCCCC2)C(=O)NC(=O)N(C)C1=O (centres undefined)    2.25
Oc1nc2ccccc2s1    1.76
CCCCOCCOCCO    0.56
O=C(O)Cc1ccc(O)cc1    0.75
O=C1CC(=O)N(c2ccccc2)N1c1ccccc1    1.45
O=C(NCc1ccccc1)c1ccco1    1.81
N#CC#N    0.07
NNC(=O)c1ccnc(Br)c1    0.25

Read the entry O=C1NCCN1c1ncc([N+](=O)[O-])s1 and write its reported logP. 0.95

Please give measured logP of the following entry: O=[N+]([O-])c1cc2ccccc2[n+]([O-])c1 0.56

For the compound COC1C(OC(C)=O)CC(=O)OC(C)CC=CC=CC(O)C(C)CC(CC=O)C1OC1OC(C)C(OC2CC(C)(O)C(OC(=O)CC(C)C)C(C)O2)C(N(C)C)C1O (centres undefined) , give its reported logP. 2.39

* * *

PROPERTY_NAME: logP

Note down logP recorded for CN(CC(O)COc1ccccc1)CC(O)COc1ccccc1 (stereo not given) 2.92

Given the molecule CC1COC(=O)O1 (stereo not given) , write its reported logP. -0.41

* * *

Peptide text beside a SMILES is read from it.
PROPERTY_NAME: logP
Give the figure only, with no unit attached.

CC(=O)NC(C)C(=O)NC(Cc1ccc(O)cc1)C(=O)NC(Cc1ccccc1)C(N)=O (stereo not drawn) (Ac-Ala-Tyr-Phe-NH2; configuration not given here)    0.26

Find the measured logP of OCCn1nnc2ccccc21 and report it. 0.5

State its logP for this molecule: CN(C)c1ccc(C(=O)c2ccc(N(C)C)cc2)cc1 3.87

In one line, give reported logP of the entry Cc1cccc(N(C)C)c1 . 2.8

For the molecule FC(F)(F)F , give its measured logP value. 1.18

# return recorded logP for input C=C1C(C)C2C(Cc3ccccc3)NC(=O)C23OC(=O)C=CC(O)CCCC(C)CC=CC3C1O (configuration not stated) 3.37

Retrieve logP measured for O=c1[nH]c(=O)n([C@H]2C[C@H](O)[C@@H](CO)O2)cc1C(F)(F)F and print it. -0.46

* * *

Classification field: met = logP at or over 1; not met = logP under 1.

Please review the entries below; each comes with its answer.
COC(=O)C1C(C=C(Cl)Cl)C1(C)C (configuration not stated)    met
CC(C)c1ccccc1OC(=O)N(C)C    met
CNC(=O)Oc1ccccc1C(C)(C)C    met

Has SC1=NCCCN1 a recorded logP greater than or equal to 1? not met

Could you please find out whether CC(=O)Nc1cc(C(=O)NN)ccn1 has logP that meets 1 or exceeds it? not met

Reported logP at or above 1? CN(C)C(N(C)C)=S(I)c1cccc(Cl)c1Cl (configuration not stated) not met

Hi team, for CCC(C)OC(=O)C(C(=O)OC(C)CC)=C1SCCS1 (configuration not stated) , is the recorded logP at or above 1? met

Identify whether the reported logP of the following molecule is 1 or greater: CCn1c(=O)c2nc(-c3ccc(S(=O)(=O)NCCN(C)C)cc3)[nH]c2n(CC)c1=O met

* * *

Catalogue of compounds with associated logP
Please reply with the value in numeric form only.

Oc1cc(Cl)cc(Cl)c1Cl    3.84
CC(C)COC(=O)c1cc(O)c(O)c(O)c1    2.46
CC1=CC(=O)c2ccccc2C1=O    2.2

Quick one: give measured logP for CC[C@H](C)[C@H](NC(C)=O)C(=O)N[C@@H](C)C(=O)N[C@H](C(N)=O)C(C)C -0.21

Dear colleague, please send me the reported logP for O=[N+]([O-])c1ncn(CC(O)CF)n1 (configuration not stated) when you can. -0.59

Please report logP for the following compound: Nc1ccccc1[N+](=O)[O-] 1.85

Dear colleague, please send me the reported logP for FC(F)(F)c1nc2ccc(Cl)cc2[nH]1 when you can. 3.39

* * *

If the reported logP equals or exceeds 1, assign 1 (yes). If not, assign 0 (no).

O=C(Nc1ccccc1)NC1CC1    1 (yes)
O=[N+]([O-])c1cc(Br)c(O)c(Br)c1    1 (yes)

State whether the measured logP reaches 1, counting equality as reaching it, for CCOc1c(OC)cc(CCN)cc1OC 1 (yes)

Item Cc1cc(=O)[nH]o1 with logP of 1 or above? 0 (no)

Decide: logP of O=C(NN=Cc1ccoc1)Nc1ccccc1 >= 1? 1 (yes)

Record CC(=O)Nc1cc(C)c(O)c(C)c1 ; criterion: logP no lower than 1. Met? 1 (yes)

Has COCC(F)Cn1ccnc1[N+](=O)[O-] (stereo not drawn) a recorded logP greater than or equal to 1? 0 (no)

State whether the measured logP reaches 1, counting equality as reaching it, for Nc1cc[nH]c(=O)n1 0 (no)

* * *

Peptide text beside a SMILES is read from it.
Each entry below carries its reported logP.
Give the value as a plain number.

Cc1c(Cl)cccc1Nc1ccccc1C(=O)O    5.17
O=P1(N(CCCl)CCCl)NCCCO1 (centres undefined)    0.63
CCC=O    0.59

Now look at this one.
Hello, please tell me recorded logP for this one: CC(=O)N[C@H](C(=O)N[C@H](C(N)=O)C(C)C)[C@@H](C)O (Ac-Thr-Val-NH2) -1.25

* * *

Peptide text beside a SMILES is read from it.
Decision: logP beneath 2 gives satisfied; logP meeting or exceeding 2 gives not satisfied.

NC(=O)c1cc(N2CC2)c([N+](=O)[O-])cc1[N+](=O)[O-]    satisfied

For this molecule, is logP lower than 2? CC(=O)N[C@@H](CC(C)C)C(=O)N[C@H](C(N)=O)C(C)C (Ac-Leu-Val-NH2) satisfied

* * *

PROPERTY_NAME: logP
Give your answer as a number; write no unit.

Determine from records and report logP for CN(C)C(=O)OCc1ccc(F)cc1 2.3

Retrieve logP measured for CC1OC(OC2C(O)CC(OC3C(O)CC(OC4CCC5(C)C(CCC6C5CC(O)C5(C)C(C7=CC(=O)OC7)CCC65O)C4)OC3C)OC2C)CC(OC(=O)C2OC(O)CC(O)C2O)C1O (centres undefined) and print it. -1.77

Specify measured logP for Oc1c(Br)cc(Br)c(O)c1Br . 4.37

Look up and state reported logP for Nc1nc2ccccc2[nH]1 0.91

Identify measured logP associated with NC(=O)C(Cl)(Cl)Cl 1.04

Output measured logP for this item: NS(=O)(=O)c1ccccc1[N+](=O)[O-] 0.34

Dear colleague, please send me the reported logP for CCCNc1nc(NCC)nc(SC(F)F)n1 when you can. 3.8

Give logP for CCN(CC)N=Nc1ccc(S(C)(=O)=O)cc1 2.6

* * *

PROPERTY_NAME: logP

Worked examples follow.
CCOC(=O)C(=Cc1ccc(OC)cc1OC)C(C)=O    2.41
CCCC(CC(C)=O)C(=O)O (stereo not given)    1.31
CC#N    -0.34

Supply logP value. Item: COC1C(O)C(C)OC(OC2CCC3(C)C(CCC4C3CCC3(C)C4(O)CC(O)C34C=CC(=O)OC4)C2)C1O (stereo not given) 0.59

Retrieve logP measured for CCCOC(C)=O and print it. 1.24

Quote logP reported for O=C1CCCCCCN1 please. 0.24

Note down logP recorded for CN(C)CCCc1ccco1 2.08

Please report the measured logP for N#CCCOc1ccccc1 1.61

* * *

// values below are reported logP

Some compounds with known logP results, for comparison:
CC1(C)NC(=O)NC1=O    -0.48
CCN(CC)CCOC(=O)C=Cc1cc(OC)c(OC)c(OC)c1    2.84
CC(N)=S    -0.26
CNc1c(Cl)cccc1Cl    2.91
O=C(O)c1cccc(O)c1O    1.2

In the following, a different compound is considered.
Assign logP to the following record: CCOC(=O)C(=Cc1ccccc1[N+](=O)[O-])C(=O)OCC 2.54
